- target of assay: Histone deacetylase 1 (Homo sapiens, UniProt Q13547)
- Sequence (Q13547 whole entry): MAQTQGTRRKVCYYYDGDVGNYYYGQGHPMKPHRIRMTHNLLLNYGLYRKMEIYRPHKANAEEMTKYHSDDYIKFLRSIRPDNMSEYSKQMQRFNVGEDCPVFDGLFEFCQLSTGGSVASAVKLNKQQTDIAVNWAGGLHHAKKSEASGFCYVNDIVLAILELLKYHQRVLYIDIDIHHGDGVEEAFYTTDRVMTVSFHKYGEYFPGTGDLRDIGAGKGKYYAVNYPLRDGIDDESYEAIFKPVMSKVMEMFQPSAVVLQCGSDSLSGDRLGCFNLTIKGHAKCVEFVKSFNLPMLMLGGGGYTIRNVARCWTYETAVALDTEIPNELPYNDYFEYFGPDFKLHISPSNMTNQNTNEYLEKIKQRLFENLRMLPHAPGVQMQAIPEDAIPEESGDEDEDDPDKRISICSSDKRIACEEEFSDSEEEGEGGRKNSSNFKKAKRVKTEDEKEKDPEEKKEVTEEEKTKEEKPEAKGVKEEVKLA
- procedure text: Inhibition of HDAC1 (unknown origin) using Ac-peptide as substrate in preincubated for 15 mins followed by substrate addition and measured after 60 mins by fluorescence method
measured metric: pIC50
Give bare numbers, as −log10 of the molar value.

In: Tell me its pIC50 given O=C(NO)C1CCN(CC(O)COC(Cn2c3ccccc3c3ccccc32)Cn2c3ccccc3c3ccccc32)CC1 (stereo unspecified) as the entry.
Out: 5.38

----------
- target of assay: DNA (cytosine-5)-methyltransferase 1 (Homo sapiens)
- Sequence (P26358 whole entry): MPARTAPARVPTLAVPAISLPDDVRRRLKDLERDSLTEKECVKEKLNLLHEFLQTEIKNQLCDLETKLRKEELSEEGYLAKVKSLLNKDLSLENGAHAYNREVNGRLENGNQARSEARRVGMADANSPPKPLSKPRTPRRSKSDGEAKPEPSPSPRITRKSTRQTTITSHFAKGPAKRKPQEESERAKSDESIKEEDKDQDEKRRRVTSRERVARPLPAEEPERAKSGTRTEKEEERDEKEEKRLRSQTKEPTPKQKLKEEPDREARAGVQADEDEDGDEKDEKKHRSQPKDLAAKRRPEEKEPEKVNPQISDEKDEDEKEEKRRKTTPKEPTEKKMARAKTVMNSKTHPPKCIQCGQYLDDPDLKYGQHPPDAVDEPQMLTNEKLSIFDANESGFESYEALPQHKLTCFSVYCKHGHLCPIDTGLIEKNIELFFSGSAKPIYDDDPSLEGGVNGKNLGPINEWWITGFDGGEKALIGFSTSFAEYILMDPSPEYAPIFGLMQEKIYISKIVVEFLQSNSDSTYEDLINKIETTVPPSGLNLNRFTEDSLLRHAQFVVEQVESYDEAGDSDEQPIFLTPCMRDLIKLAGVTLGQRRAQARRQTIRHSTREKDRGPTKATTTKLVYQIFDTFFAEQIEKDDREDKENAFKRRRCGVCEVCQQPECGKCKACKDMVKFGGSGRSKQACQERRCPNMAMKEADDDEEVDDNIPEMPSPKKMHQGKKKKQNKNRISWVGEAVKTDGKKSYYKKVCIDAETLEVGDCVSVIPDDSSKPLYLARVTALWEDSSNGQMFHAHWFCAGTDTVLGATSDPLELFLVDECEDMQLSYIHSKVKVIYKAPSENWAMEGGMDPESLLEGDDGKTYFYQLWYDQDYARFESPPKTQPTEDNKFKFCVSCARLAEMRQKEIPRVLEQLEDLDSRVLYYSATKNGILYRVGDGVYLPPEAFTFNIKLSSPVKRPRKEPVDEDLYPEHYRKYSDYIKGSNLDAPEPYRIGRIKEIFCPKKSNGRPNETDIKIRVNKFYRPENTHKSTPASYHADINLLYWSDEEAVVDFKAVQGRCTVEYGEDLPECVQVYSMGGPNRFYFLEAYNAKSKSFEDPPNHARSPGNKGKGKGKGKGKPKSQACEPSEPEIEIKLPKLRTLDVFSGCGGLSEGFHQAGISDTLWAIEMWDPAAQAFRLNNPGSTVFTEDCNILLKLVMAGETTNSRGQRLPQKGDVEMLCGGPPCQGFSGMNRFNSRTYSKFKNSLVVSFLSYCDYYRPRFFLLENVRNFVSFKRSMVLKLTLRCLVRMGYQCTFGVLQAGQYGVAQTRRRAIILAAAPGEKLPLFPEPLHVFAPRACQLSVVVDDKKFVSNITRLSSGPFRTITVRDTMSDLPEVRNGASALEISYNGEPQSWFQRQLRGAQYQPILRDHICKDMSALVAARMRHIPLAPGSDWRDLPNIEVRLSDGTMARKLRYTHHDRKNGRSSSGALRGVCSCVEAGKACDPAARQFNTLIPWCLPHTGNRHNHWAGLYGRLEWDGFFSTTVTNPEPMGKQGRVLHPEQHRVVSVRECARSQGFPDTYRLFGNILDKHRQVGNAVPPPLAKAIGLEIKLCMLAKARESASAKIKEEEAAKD
measured metric: IC50 (nM)
Numbers only, in nM.

In: Tell me its IC50 given O=C(NO)C1CCN(CC(O)COC(Cn2c3ccccc3c3ccccc32)Cn2c3ccccc3c3ccccc32)CC1 (stereo unspecified) as the entry.
Out: 2020
